# System: Radical scavenging activity
# Method Summary: Antioxidant activity assessed as DPPH radical scavenging activity at 100 uM after 60 mins by spectrophotometric analysis
# Format: functional
# key: entry, value: Activity

Example cases with answers are listed next.
COc1c2occc2c(-c2ccc(/C=C/C(=O)O)cc2)c2ccc(=O)oc12: 44%
COc1c2ccoc2cc2oc(=O)ccc12: 14%

Given item COc1c2ccoc2c(Br)c2oc(=O)ccc12 , the value recorded as its Activity is 7%

Given item CC(Cc1ccc(O)c(O)c1)C(C)Cc1ccc(O)c(O)c1 (stereo unspecified) , the value recorded as its Activity is 83%

Given item COc1c2ccoc2c(-c2ccc(C(=O)O)cc2)c2oc(=O)ccc12 , the value recorded as its Activity is 19%
